Below, each of the binders is paired with its reported Avg. IC50, human hemolysis assay (complete human sera) value.
Molecular target: human C5 protein (human, UniProt P01031 19-673; P01031 678-1676)
Experiment: cell-based or functional assay
Starred links: 1 amine or outer side, 2 acyl side, 3 side chain; linkers in the order of their positions; H or OH if unused. Positions of bridges follow the written chain, without caps; N, C: chain ends. Non-standard residues stand in square brackets, D forms with d. Primed or numbered codes have the meaning given here. No end group written: not given here. mXylyl(5) = bridging moiety between the two residues (meta-xylyl); mXylyl″ = bridging moiety between the two marked residues; mXylyl = bridging moiety between residues (mXylyl(i,j)); Trp(7-aza) = N[C@@H](Cc1c[nH]c2ncccc12)C(=O)O; mXylyl(4) = bridging moiety between residues; pXylyl = bridging moiety between residues; Phg(2-OMe) = COc1ccccc1[C@H](N)C(=O)O; pXylylene = c1cc(C[*:2])ccc1C[*:1]; Chg = N[C@H](C(=O)O)C1CCCCC1; Phg = N[C@H](C(=O)O)c1ccccc1; Tle = CC(C)(C)[C@H](N)C(=O)O; NMeS = CN[C@@H](CO)C(=O)O; hCys = N[C@@H](CCS)C(=O)O; NMeA = CN[C@@H](C)C(=O)O; Nle = CCCC[C@H](N)C(=O)O; Pra = C#CC[C@H](N)C(=O)O; Nva = CCC[C@H](N)C(=O)O
RECORDED_METRIC: Avg. IC50, human hemolysis assay (complete human sera) (nM)

BINDER	CENSORING_OPERATOR	VALUE_OBSERVED
Ac-[Nva]C[Phg]T[Trp(7-aza)]QY[NMeS]AC[Nva]-NH2 (linker 2-10 via mXylyl(4)) [R3098]	>	100000
VVYENGYWEYPGVK (Ac-Nvl-Nvl-Y-E-N-Tbg-Y-azaTrp-E-Y-P-Chg-Nvl-K-(BODIPY-TMR-X) NH2, R3072 with BODIPY-TMR dye on the C-terminal lysine; fluorescent probe of the FP assay; also called Probe R3076; labeled probe) [R3076]	=	297
Ac-[Nva]C[Chg]T[Trp(7-aza)]EY[NMeS]HC[Nva]-NH2 (linker 2-10 via pXylylene) [R3058]	>	10000
Ac-[Nva]CKE[Phg]YC[NMeS][Tle]K[Trp(7-aza)]EY-NH2 (linker 2-7 via mXylyl) [R3007]	=	314
Ac-C[Phg]T[Trp(7-aza)]EY[NMeS]HC-NH2 (linker 1-9 via mXylyl) [R3015]	>	3960
Ac-[Nva]C[Phg(2-OMe)]T[Trp(7-aza)]EY[NMeS]HC[Nva]-NH2 (linker 2-10 via mXylyl(5)) [R3087]	>	25000
Ac-[Nva]CYNN[Tle]E[Trp(7-aza)]EYP[Phg][Tle]-NH2 (SMILES CCC[C@H](NC(C)=O)C(=O)N[C@@H](CS)C(=O)N[C@@H](Cc1ccc(O)cc1)C(=O)N[C@@H](CC(N)=O)C(=O)N[C@@H](CC(N)=O)C(=O)N[C@H](C(=O)N[C@@H](CCC(=O)O)C(=O)N[C@@H](Cc1c[nH]c2ncccc12)C(=O)N[C@@H](CCC(=O)O)C(=O)N[C@@H](Cc1ccc(O)cc1)C(=O)N1CCC[C@H]1C(=O)N[C@H](C(=O)N[C@H](C(N)=O)C(C)(C)C)c1ccccc1)C(C)(C)C) [R3004]	=	53.5
Ac-[Nva]CYKNYH[Trp(7-aza)]EYP[Tle]Y-NH2 (SMILES CCC[C@H](NC(C)=O)C(=O)N[C@@H](CS)C(=O)N[C@@H](Cc1ccc(O)cc1)C(=O)N[C@@H](CCCCN)C(=O)N[C@@H](CC(N)=O)C(=O)N[C@@H](Cc1ccc(O)cc1)C(=O)N[C@@H](Cc1c[nH]cn1)C(=O)N[C@@H](Cc1c[nH]c2ncccc12)C(=O)N[C@@H](CCC(=O)O)C(=O)N[C@@H](Cc1ccc(O)cc1)C(=O)N1CCC[C@H]1C(=O)N[C@H](C(=O)N[C@@H](Cc1ccc(O)cc1)C(N)=O)C(C)(C)C) [R3000]	>	10000
Ac-[Nva]C[Phg]T[Trp(7-aza)]EY[NMeA]HC[Nva]-NH2 (linker 2-10 via mXylyl) [R3037]	=	276
Ac-[Nle]C[Phg]T[Trp(7-aza)]EY[NMeS]HC[Nva]-NH2 (linker 2-10 via mXylyl(4)) [R3112]	>	5000
Ac-[Nva]C[Phg]T[Trp(7-aza)]DY[NMeS]AC[Nva]-NH2 (linker 2-10 via mXylyl(4)) [R3097]	>	100000
Ac-[Nva]C[Phg]T[Trp(7-aza)]EYPHC[Nva]-NH2 (linker 2-10 via mXylyl(4)) [R3102]	=	978
Ac-CVERFCDVYWEFP-NH2 (linker 1-6 via mXylyl″) [R3141]	=	24.5
Ac-[Nva]C[Phg]T[Trp(7-aza)]EY[NMeS]H[hCys][Nva]-NH2 (linker 2-10 via pXylyl) [R3106]	>	5000
MCSERYCEVRWEY-NH2 (linker 2-7 via mXylyl) [R3020]	=	24.6
Ac-C[Tle]Y[Trp(7-aza)]EY[NMeS]HC-NH2 (linker 1-9 via mXylyl) [R3016]	>	13000
Ac-CVERFCDVYWEF[Pra]-NH2 (linker 1-6 via mXylyl″) [R3147]	=	138

Values were extracted from patent US11535650.
